- SYSTEM TESTED: PI3K beta (Homo sapiens, UniProt P42338)
- Construct: for the full-length p110-b subunit are generated and fused by overlapping PCR; p85(iSH2) fusion partner (see partner chain) (N); His tag (C); Tn5 (Trichoplusia ni) or TiniPro insect cells
- Sequence (P42338 with tags, fused parts or gaps limits assumed): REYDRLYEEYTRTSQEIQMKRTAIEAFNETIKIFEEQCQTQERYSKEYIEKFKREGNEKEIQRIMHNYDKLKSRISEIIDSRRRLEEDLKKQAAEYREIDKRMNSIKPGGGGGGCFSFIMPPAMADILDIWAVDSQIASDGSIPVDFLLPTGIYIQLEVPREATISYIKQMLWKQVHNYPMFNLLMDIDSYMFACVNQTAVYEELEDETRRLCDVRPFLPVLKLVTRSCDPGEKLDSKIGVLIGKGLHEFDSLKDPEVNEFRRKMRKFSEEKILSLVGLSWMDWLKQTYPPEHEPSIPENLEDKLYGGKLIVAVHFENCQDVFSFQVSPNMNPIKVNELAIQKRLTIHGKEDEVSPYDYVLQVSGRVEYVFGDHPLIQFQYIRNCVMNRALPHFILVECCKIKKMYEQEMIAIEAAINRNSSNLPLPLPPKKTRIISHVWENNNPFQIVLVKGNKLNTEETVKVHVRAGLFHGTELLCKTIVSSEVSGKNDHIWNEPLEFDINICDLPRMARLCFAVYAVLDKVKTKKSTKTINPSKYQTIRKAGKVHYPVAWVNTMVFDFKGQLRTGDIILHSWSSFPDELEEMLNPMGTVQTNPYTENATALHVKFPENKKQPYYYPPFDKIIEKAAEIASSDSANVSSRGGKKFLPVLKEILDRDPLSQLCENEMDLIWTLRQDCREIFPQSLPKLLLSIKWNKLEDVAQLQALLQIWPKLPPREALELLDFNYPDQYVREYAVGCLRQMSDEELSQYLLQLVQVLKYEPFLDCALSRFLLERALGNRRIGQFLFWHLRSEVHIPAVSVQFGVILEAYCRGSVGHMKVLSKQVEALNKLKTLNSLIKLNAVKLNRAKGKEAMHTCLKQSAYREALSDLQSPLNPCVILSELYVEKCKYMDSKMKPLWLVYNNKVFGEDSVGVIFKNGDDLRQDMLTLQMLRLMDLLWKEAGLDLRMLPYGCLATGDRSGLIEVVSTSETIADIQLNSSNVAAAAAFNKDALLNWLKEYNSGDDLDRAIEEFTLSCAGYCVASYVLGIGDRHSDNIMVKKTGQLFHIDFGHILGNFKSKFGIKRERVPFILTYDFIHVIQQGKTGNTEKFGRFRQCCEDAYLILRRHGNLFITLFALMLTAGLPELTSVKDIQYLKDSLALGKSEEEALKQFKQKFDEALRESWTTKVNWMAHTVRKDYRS
- PROCEDURE DETAILS: PI3K beta kinase assay (Kinase-Glo luminescence)
RECORDED ENDPOINT: IC50 (nM)

> print(dat)
                                   compound  recorded.endpoint  reported.result
1  CCn1cc(-n2c(=O)n(C)c3cnc4ccc(-c5ccc(OCCOC)c(OC)c5)cc4c32)c(C)n1 [Example 30.2]               IC50              239
2  Cc1nn(C)cc1-n1c(=O)n(C)c2cnc3ccc(-c4cnc5c(c4)C(C)(C)C(=O)N5C)cc3c21 [Example 233]               IC50               39
3  CNc1ncc(-c2ccc3ncc4c(c3c2)n(-c2c(C)nn(C)c2C)c(=O)n4C)cc1C(F)(F)F [Example 144.1]               IC50               80
4  Cc1nn(CC(=O)N2CCC2)cc1-n1c(=O)n(C)c2cnc3ccc(-c4cncc(OC(C)C)c4)cc3c21 [Example 205]               IC50               17
5  Cc1ncc(-c2ccc3ncc4c(c3c2)n(-c2cn(C)nc2C)c(=O)n4C)cc1N [Example 88.2]               IC50               68
6  COc1cc(-c2ccc3ncc4c(c3c2)n(-c2cn(C)nc2C)c(=O)n4C)cnc1CO [Example 193]               IC50               50

I = COc1ccc(-c2ccc3ncc4c(c3c2)n(-c2cn(CCO)nc2C)c(=O)n4C)cn1 [Example 103.1]
II = CNc1ncc(-c2ccc3ncc4c(c3c2)n(-c2c(C)nn(C)c2C)c(=O)n4C)cc1Cl [Example 146.4]
So which one has the bigger IC50 here, I or II ? When you have decided, please share the label of that item. II
